All values here come from the Kinase Knowledgebase extract (Sharma et al. 2016).

target: PIK3CD (Human); test: Cell-Based Assay; conditions: rat-1
pIC50: −log10 of the molar value.
# cutoff 7 applies to pIC50; >= gives fulfilled, < gives not fulfilled

Has N#Cc1c(N)ncnc1N1CCC[C@H]1c1nc2cc(F)cc(F)c2c(=O)n1-c1ccccc1 a recorded pIC50 greater than or equal to 7?
not fulfilled

Has CO[C@H]1C[C@@H](c2nc3cccc(Cl)c3c(=O)n2-c2ccccc2)N(c2ncnc3[nH]cnc23)C1 a recorded pIC50 greater than or equal to 7?
fulfilled

====

target: PIK3CA (human) (UniProt P42336); assay: Enzyme Assay
Sequence (P42336 whole entry, looked up): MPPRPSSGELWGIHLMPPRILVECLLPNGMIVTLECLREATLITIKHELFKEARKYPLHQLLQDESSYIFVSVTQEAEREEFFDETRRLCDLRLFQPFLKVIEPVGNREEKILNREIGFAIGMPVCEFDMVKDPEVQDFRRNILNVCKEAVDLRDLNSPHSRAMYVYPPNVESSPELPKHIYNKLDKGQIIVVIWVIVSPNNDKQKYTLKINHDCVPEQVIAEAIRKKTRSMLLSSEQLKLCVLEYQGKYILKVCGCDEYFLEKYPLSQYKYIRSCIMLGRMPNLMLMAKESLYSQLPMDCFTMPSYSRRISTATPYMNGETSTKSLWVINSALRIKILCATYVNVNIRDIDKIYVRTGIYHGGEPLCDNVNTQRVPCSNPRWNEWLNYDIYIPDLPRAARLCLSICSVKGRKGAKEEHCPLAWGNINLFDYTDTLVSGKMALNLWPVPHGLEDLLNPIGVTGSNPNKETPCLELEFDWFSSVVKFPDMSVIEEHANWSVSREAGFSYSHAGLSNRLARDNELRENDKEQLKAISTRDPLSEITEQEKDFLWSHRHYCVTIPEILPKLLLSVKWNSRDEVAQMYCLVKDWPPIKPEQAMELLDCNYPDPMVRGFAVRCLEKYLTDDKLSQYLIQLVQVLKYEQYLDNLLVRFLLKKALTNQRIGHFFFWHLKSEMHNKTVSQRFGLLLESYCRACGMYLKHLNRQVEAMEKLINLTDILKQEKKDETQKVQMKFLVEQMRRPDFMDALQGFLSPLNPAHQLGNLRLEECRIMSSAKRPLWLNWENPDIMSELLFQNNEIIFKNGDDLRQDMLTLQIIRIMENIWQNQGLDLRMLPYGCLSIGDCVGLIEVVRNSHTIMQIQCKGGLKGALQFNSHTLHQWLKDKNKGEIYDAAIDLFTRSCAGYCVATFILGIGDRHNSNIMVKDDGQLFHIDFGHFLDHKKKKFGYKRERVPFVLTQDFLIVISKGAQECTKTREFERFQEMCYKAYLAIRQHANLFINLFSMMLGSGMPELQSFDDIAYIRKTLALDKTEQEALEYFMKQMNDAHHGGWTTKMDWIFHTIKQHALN
Please go through the items and note down their pIC50.
Please treat pIC50 as minus the base-10 logarithm of the molar concentration.

Per the record, N#Cc1cnc(N)nc1N1CCC[C@H]1c1nc2cccc(C(F)(F)F)c2c(=O)n1-c1ccccc1 has pIC50 of 5.51

Per the record, N#Cc1c(N)ncnc1N1CCC[C@H]1c1nc2cccc(C(F)(F)F)c2c(=O)n1-c1ccccc1 has pIC50 of 5.55

Per the record, Nc1nc(N2CCC[C@H]2c2nc3cccc(Cl)c3c(=O)n2-c2ccccc2)c2ncsc2n1 has pIC50 of 6.46

Per the record, Cn1cnc2c(N3CCC[C@H]3c3nc4cccc(Cl)c4c(=O)n3-c3ccccc3)nc(N)nc21 has pIC50 of 5.43

Per the record, N#Cc1c(N)ncnc1N1CCC[C@H]1c1nc2cccc(C(F)(F)F)c2c(=O)n1-c1cccnc1 has pIC50 of 5.57

Per the record, Cc1nc(N)nc(N2C[C@@H](O)C[C@H]2c2nc3cccc(Cl)c3c(=O)n2C2CC2)c1C#N has pIC50 of 6.16

Per the record, Nc1nc(N2CCC[C@H]2c2nc3cccc(Cl)c3c(=O)n2C2CCCCC2)c2nc[nH]c2n1 has pIC50 of 5.75

Per the record, Cc1nc(N)nc(N2C[C@@H](O)C[C@H]2c2nc3ccc(F)c(C)c3c(=O)n2-c2ccccc2)c1C#N has pIC50 of 6.57
